Where do the numbers come from? From patent US9902940B2.

test.details: Sodium fluorescein permeability, DF19-9-11T-derived BMECs
Assay type: in vitro ADME
setup.conditions: human, 1 μM sodium fluorescein, read-out: fluorescein permeability coefficient (Pe), average (converted)

# compound, units, Papp A→B at 1 μM
rows = [
    ("O=C1OC2(c3ccc(O)cc3Oc3cc(O)ccc32)c2ccccc21 [sodium fluorescein]", "×10⁻⁶ cm/s", 0.085),
]
